- Tested on: E.cloacae 908SSi
- test-protocol: Antibacterial spectrum (MIC), agar dilution
- Format: cell-based
- measurement-parameters: Enterobacter cloacae, read-out: MIC
measurement-type: MIC (µg/mL)

Solved entries:
> print(dat)
                                   compound  measurement.type  recorded.result
1  Nc1nc(/C(=N/O)C(=O)N[C@@H]2C(=O)N3C(C(=O)O)=C(/C=C4\CCN(CCF)C4=O)CS[C@H]23)cs1               MIC             0.12
2  C=CCN1CC/C(=C\C2=C(C(=O)O)N3C(=O)[C@@H](NC(=O)/C(=N\O)c4csc(N)n4)[C@H]3SC2)C1=O               MIC             0.25
3  Nc1nc(/C(=N/O)C(=O)N[C@@H]2C(=O)N3C(C(=O)O)=C(/C=C4\CCN(c5ccccc5)C4=O)CS[C@H]23)cs1               MIC              0.5
4  COc1ccc(N2CC/C(=C\C3=C(C(=O)O)N4C(=O)[C@@H](NC(=O)/C(=N\O)c5csc(N)n5)[C@H]4SC3)C2=O)cc1               MIC              0.5
5  N#CCN1CC/C(=C\C2=C(C(=O)O)N3C(=O)[C@@H](NC(=O)/C(=N\O)c4csc(N)n4)[C@H]3SC2)C1=O               MIC                1
6  C#CCN1CC/C(=C\C2=C(C(=O)O)N3C(=O)[C@@H](NC(=O)/C(=N\O)c4csc(N)n4)[C@H]3SC2)C1=O               MIC                1

1: C=CC1=C(C(=O)O)N2C(=O)[C@@H](NC(=O)/C(=N\O)c3csc(N)n3)[C@H]2SC1 [Cefdinir, reference compound]
2: Nc1nc(/C(=N/O)C(=O)N[C@@H]2C(=O)N3C(C(=O)O)=C(/C=C4\CCN(c5cnccn5)C4=O)CS[C@H]23)cs1
3: Nc1nc(/C(=N/O)C(=O)N[C@@H]2C(=O)N3C(C(=O)O)=C(/C=C4\CCN(CC5CC5)C4=O)CS[C@H]23)cs1
4: Nc1nc(/C(=N/O)C(=O)N[C@@H]2C(=O)N3C(C(=O)O)=C(/C=C4\CCN(C5CC5)C4=O)CS[C@H]23)cs1
5: CC(C)(C)N1CC/C(=C\C2=C(C(=O)O)N3C(=O)[C@@H](NC(=O)/C(=N\O)c4csc(N)n4)[C@H]3SC2)C1=O
Arrange these compounds by their MIC, starting with the largest number. Hello, could you send the labels back in the order asked? Thank you.
1, 5, 3, 2, 4

* * *

- Test system: M.catarrhalis
measurement-type: MIC90 (µg/mL)

Solved entries:
> print(dat)
                                   molecule  recorded.result
1  CC(C)(C)N1CC/C(=C\C2=C(C(=O)O)N3C(=O)[C@@H](NC(=O)/C(=N\O)c4csc(N)n4)[C@H]3SC2)C1=O               16
2  COc1ccc(N2CC/C(=C\C3=C(C(=O)O)N4C(=O)[C@@H](NC(=O)/C(=N\O)c5csc(N)n5)[C@H]4SC3)C2=O)cc1               16
3  CON1CC/C(=C\C2=C(C(=O)O)N3C(=O)[C@@H](NC(=O)/C(=N\O)c4csc(N)n4)[C@H]3SC2)C1=O               16
4  Nc1nc(/C(=N/O)C(=O)N[C@@H]2C(=O)N3C(C(=O)O)=C(/C=C4\CCN(C5CC5)C4=O)CS[C@H]23)cs1               16

A: Nc1nc(/C(=N/O)C(=O)N[C@@H]2C(=O)N3C(C(=O)O)=C(/C=C4\CCN(CC(F)(F)F)C4=O)CS[C@H]23)cs1
B: C=CC1=C(C(=O)O)N2C(=O)[C@@H](NC(=O)/C(=N\O)c3csc(N)n3)[C@H]2SC1 [Cefdinir, reference compound]
Which entry shows the lesser value of MIC90 here, A or B ? Give the label of your selection.
B

* * *

- System: E.faecium
measurement-type: MIC50 (µg/mL)

Solved entries:
> print(dat)
                                   compound  target.or.system  recorded.result
1  CON1CC/C(=C\C2=C(C(=O)O)N3C(=O)[C@@H](NC(=O)/C(=N\O)c4csc(N)n4)[C@H]3SC2)C1=O [G]         E.faecium                4
2  CC(C)(C)N1CC/C(=C\C2=C(C(=O)O)N3C(=O)[C@@H](NC(=O)/C(=N\O)c4csc(N)n4)[C@H]3SC2)C1=O [J]         E.faecium                4
3  Nc1nc(/C(=N/O)C(=O)N[C@@H]2C(=O)N3C(C(=O)O)=C(/C=C4\CCN(CC(F)(F)F)C4=O)CS[C@H]23)cs1 [E]         E.faecium                4
4  C=CC1=C(C(=O)O)N2C(=O)[C@@H](NC(=O)/C(=N\O)c3csc(N)n3)[C@H]2SC1 [Cefdinir, reference compound]         E.faecium               16
5  Nc1nc(/C(=N/O)C(=O)N[C@@H]2C(=O)N3C(C(=O)O)=C(/C=C4\CCN(CCF)C4=O)CS[C@H]23)cs1 [F]         E.faecium                2

A: COc1ccc(N2CC/C(=C\C3=C(C(=O)O)N4C(=O)[C@@H](NC(=O)/C(=N\O)c5csc(N)n5)[C@H]4SC3)C2=O)cc1 [I]
B: Nc1nc(/C(=N/O)C(=O)N[C@@H]2C(=O)N3C(C(=O)O)=C(/C=C4\CCN(C5CC5)C4=O)CS[C@H]23)cs1 [D]
Which entry shows the lesser value of MIC50 here, A or B ? Give the label of your selection.
A
(A: 2 µg/mL, B: 4 µg/mL)

* * *

Quick record of MIC90 values for S.aureus MRSA.
measurement-type: MIC90 (µg/mL)

Solved entries:
> print(dat)
                                   molecule  target.or.system  recorded.result
1  CON1CC/C(=C\C2=C(C(=O)O)N3C(=O)[C@@H](NC(=O)/C(=N\O)c4csc(N)n4)[C@H]3SC2)C1=O [G]     S.aureus MRSA               16
2  COc1ccc(N2CC/C(=C\C3=C(C(=O)O)N4C(=O)[C@@H](NC(=O)/C(=N\O)c5csc(N)n5)[C@H]4SC3)C2=O)cc1 [I]     S.aureus MRSA               32

I: CC(C)(C)N1CC/C(=C\C2=C(C(=O)O)N3C(=O)[C@@H](NC(=O)/C(=N\O)c4csc(N)n4)[C@H]3SC2)C1=O [J]
II: Nc1nc(/C(=N/O)C(=O)N[C@@H]2C(=O)N3C(C(=O)O)=C(/C=C4\CCN(CCF)C4=O)CS[C@H]23)cs1 [F]
Of I and II , which one carries the higher reported MIC90? Give the label of your selection.
I

* * *

- Test system: H.influenzae 1
- test-protocol: Antibacterial spectrum (MIC), agar dilution
- Type: cell-based
- measurement-parameters: Haemophilus influenzae, read-out: MIC
measurement-type: MIC (µg/mL)

> print(dat)
                                   compound  measurement.type  recorded.result
1  Nc1nc(/C(=N/O)C(=O)N[C@@H]2C(=O)N3C(C(=O)O)=C(/C=C4\CCN(c5ccccc5)C4=O)CS[C@H]23)cs1               MIC              0.5

P: N#CCN1CC/C(=C\C2=C(C(=O)O)N3C(=O)[C@@H](NC(=O)/C(=N\O)c4csc(N)n4)[C@H]3SC2)C1=O
Q: Nc1nc(/C(=N/O)C(=O)N[C@@H]2C(=O)N3C(C(=O)O)=C(/C=C4\CCN(C5CC5)C4=O)CS[C@H]23)cs1
R: CON1CC/C(=C\C2=C(C(=O)O)N3C(=O)[C@@H](NC(=O)/C(=N\O)c4csc(N)n4)[C@H]3SC2)C1=O
Arrange these compounds by their MIC, starting with the largest number. Hello, could you send the labels back in the order asked? Thank you.
P, Q, R
(P: 0.5 µg/mL, Q: 0.25 µg/mL, R: 0.12 µg/mL)

* * *

- Tested on: Escherichia coli 25922
- test-protocol: Efficacy against systemic infections (septicemia) in mice
- Type: in vivo
- measurement-parameters: 96 h, Escherichia coli 25922, po (orally) 1 and 3 h after challenge, survival day 4
measurement-type: ED50 (mg/kg)
Give just the number in mg/kg; leave the unit off.

> print(dat)
                                   molecule        target.or.system  measurement.type  value.units  recorded.result
1  Nc1nc(/C(=N/O)C(=O)N[C@@H]2C(=O)N3C(C(=O)O)=C(/C=C4\CCN(CC(F)(F)F)C4=O)CS[C@H]23)cs1  Escherichia coli 25922              ED50        mg/kg                3

State, in one line, measured ED50 of C=CC1=C(C(=O)O)N2C(=O)[C@@H](NC(=O)/C(=N\O)c3csc(N)n3)[C@H]2SC1 [Cefdinir, reference compound]
1.8

State, in one line, measured ED50 of Nc1nc(/C(=N/O)C(=O)N[C@@H]2C(=O)N3C(C(=O)O)=C(/C=C4\CCN(C5CC5)C4=O)CS[C@H]23)cs1
3

State, in one line, measured ED50 of C=CC1=C(C(=O)O)N2C(=O)[C@@H](NC(=O)/C(=N\OCC(=O)O)c3csc(N)n3)[C@H]2SC1 [Cefixime, reference compound]
0.5
